- Target Under Test: 5-hydroxytryptamine receptor 1A (Homo sapiens, UniProt P08908)
- Sequence (P08908 whole entry): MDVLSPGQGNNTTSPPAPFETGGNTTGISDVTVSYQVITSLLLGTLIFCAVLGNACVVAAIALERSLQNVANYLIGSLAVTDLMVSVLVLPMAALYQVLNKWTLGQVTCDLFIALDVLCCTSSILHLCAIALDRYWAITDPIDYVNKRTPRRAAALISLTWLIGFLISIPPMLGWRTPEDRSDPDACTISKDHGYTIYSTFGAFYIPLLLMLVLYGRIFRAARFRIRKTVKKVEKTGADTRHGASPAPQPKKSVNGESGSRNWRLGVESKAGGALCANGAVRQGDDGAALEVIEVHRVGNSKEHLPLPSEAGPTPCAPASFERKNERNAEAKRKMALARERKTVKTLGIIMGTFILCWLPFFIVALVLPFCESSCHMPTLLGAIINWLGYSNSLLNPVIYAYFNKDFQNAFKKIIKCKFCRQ
Endpoint Label: Ki (µM)

1. Cc1ccc(C(C)NCCC(c2ccc(F)cc2)c2ccco2)cc1 (stereo not given) :: 6.1
2. CCC1(C)CC(CCNCc2ccccc2)(c2ccc(C)cc2)CCO1 (stereo not given) :: 41.8
3. CCC1(C)CC(CCNCc2ccc(OC)c(OC)c2)(c2ccc(C)cc2)CCO1 (stereo not given) :: 36.8
4. CC(NCCC(Cc1ccccc1)c1ccco1)c1ccc(Cl)cc1 (stereo not given) :: 7.1
5. Cc1ccc(C(C)(C)CC(C)NCc2ccc(C(F)(F)F)cc2)o1 (stereo not given) :: 31.4

----------
- Organism: Homo sapiens
- Assay Procedure: Selectivity index, ratio of Ki for human 5-HT7B receptor to Ki for human 5-HT6 receptor
molecules and their reported Ratio Ki
Endpoint Label: Ratio Ki

1) Cc1ccc(COc2ccc(Br)cc2CNC(C)c2ccccc2)cc1 (configuration not stated) :: 0.7
2) O[C@H](CCN1CCc2onc(-c3ccc(F)c(F)c3)c2C1)c1ccccc1 :: 8
3) CCC1(C)CC(CCNCc2ccccc2)(c2ccc(C)cc2)CCO1 (configuration not stated) :: 2
4) COc1ccc(CNCCC(c2ccco2)c2ccccc2OC)cc1 (configuration not stated) :: 4
5) Cc1ccc(C(C)NCCC(c2ccc(F)cc2)c2ccco2)cc1 (configuration not stated) :: 7
6) O=C1N(Cc2ccccc2)C(c2ccccc2)=NC1(Nc1ccccn1)C(F)(F)F (configuration not stated) :: 44
7) COc1cc(CNCCC2=CCCCC2)ccc1OCc1ccccc1 :: 3
8) Cc1ccc(C(CCNC(C)c2ccc(Cl)cc2)c2ccco2)cc1 (configuration not stated) :: 3
9) CCC1(C)CC(CCNCc2ccc(OC)c(OC)c2)(c2ccc(C)cc2)CCO1 (configuration not stated) :: 11
10) COc1ccc(CNCCC(c2ccccc2)c2ccc3c(c2)OCO3)cc1 (configuration not stated) :: 4
11) CC(NCCC(Cc1ccccc1)c1ccco1)c1ccc(Cl)cc1 (configuration not stated) :: 3
12) Cc1ccc(C(C)(C)CC(C)NCc2ccc(C(F)(F)F)cc2)o1 (configuration not stated) :: 1

----------
- Species on record: Homo sapiens
- Assay Procedure: Selectivity index, ratio of Ki for human 5-HT1A receptor to Ki for human 5-HT7B receptor
Label 0 if Ratio Ki falls below 1; label 1 in every other case.

1) Cc1ccc(C(C)(C)CC(C)NCc2ccc(C(F)(F)F)cc2)o1 (configuration not stated) :: 1
2) O=C1N(Cc2ccccc2)C(c2ccccc2)=NC1(Nc1ccccn1)C(F)(F)F (configuration not stated) :: 1
3) O[C@H](CCN1CCc2onc(-c3ccc(F)c(F)c3)c2C1)c1ccccc1 :: 1
4) Cc1ccc(C(C)NCCC(c2ccc(F)cc2)c2ccco2)cc1 (configuration not stated) :: 0
5) CC(NCCC(Cc1ccccc1)c1ccco1)c1ccc(Cl)cc1 (configuration not stated) :: 1
6) CCC1(C)CC(CCNCc2ccccc2)(c2ccc(C)cc2)CCO1 (configuration not stated) :: 1
7) COc1cc(CNCCC2=CCCCC2)ccc1OCc1ccccc1 :: 0
8) Cc1ccc(COc2ccc(Br)cc2CNC(C)c2ccccc2)cc1 (configuration not stated) :: 1
9) COc1ccc(CNCCC(c2ccco2)c2ccccc2OC)cc1 (configuration not stated) :: 0
